Source of measurements: patent US9090600B2

RECORDED CONDITIONS: pH 2.7
Marks after values point to notes of the source that are not given here.
RESULT TYPE: LogP

Challenge: Dear colleague, I am looking for the recorded LogP of the following compound: CCCCOC(=O)Nc1nc(CO/N=C(/c2ccccc2Cl)c2noc(=O)n2C)cs1
Response given: 3.85 [a]

Challenge: Repeat with Cn1c(/C(=N\OCc2csc(N)n2)c2ccccc2Cl)noc1=O
Response given: 1.72 [a]

Challenge: Now this one: CCCCOC(=O)Nc1cccc(CO/N=C(/c2cccc(F)c2)c2noc(=O)n2C)n1
Response given: 4.14 [a]

Challenge: Also, CC(OCC1CC1)C(=O)Nc1cccc(CO/N=C(/c2ccccc2)c2noc(=O)n2C)n1 (racemic) please.
Response given: 3.78 [a]
